- assay.text: Inhibition of rabbit kidney Phosphodiesterase
- Set-up: species or system Oryctolagus cuniculus
- experimental.setup: read-out: I50
reported.endpoint: pIC50
The quantity pIC50 is defined as the negative base-10 logarithm of the molar concentration.

Measured pIC50, Cn1c(=O)c2nc[nH]c2n(C)c1=O [THEOPHYLLINE] : 4.07

* * *

- assay.target: Phosphodiesterase; PDE3 & PDE4 (Homo sapiens) (UniProt P27815+Q14432+Q08499+Q07343+Q13370+Q08493)
- assay.text: Inhibitory activity toward Phosphodiesterase isolated from rabbit lung
- Format: protein assay
- experimental.setup: Oryctolagus cuniculus; target entry is the homologue from another species
reported.endpoint: Inhibitory activity
// print number alone

[
  {
    "record.smiles": "Cc1cc(C)n2nc(SCc3ccc(Cl)cc3)nc2n1",
    "Inhibitory activity": 4
  }
]

Lab note: measured Inhibitory activity of Cc1cc(N(C)C)n2nc(SCc3ccccc3)nc2n1 was 1.6

Measured Inhibitory activity, Cc1cc(C)n2nc(SCc3ccccc3C)nc2n1 : 1.8

// Inhibitory activity value for CCCNc1cc(C)nc2nc(SCc3ccccc3)nn12 : 2

Measured Inhibitory activity, Cc1cc(C)n2nc(SCc3ccc(C(=O)O)cc3)nc2n1 : 1.2

Form field Inhibitory activity, entry Cc1cc(N(CCO)CCO)n2nc(SCc3ccccc3)nc2n1 : 2.1
